# Tested on: pigweed (Amaranthus retroflexus)
# Assay overview: Test C greenhouse herbicide test, pre- and postemergence
# Assay type: in vivo
# Test context: Postemergence, 125 g ai/ha; scale 0 to 100, 0 is no effect, 100 is complete control
Measured quantity: Plant response rating, Pigweed

Requested read-out: Plant response rating, Pigweed. Entry: CCCC(=O)Oc1c(C)nn(C)c(=O)c1-c1c(C)sc2ccc(C)cc12 [Compound 105] 100

Data request, read-out Plant response rating, Pigweed, for CCC(=O)Oc1c(C)nn(C)c(=O)c1-c1ccc(F)c2ccccc12 [Compound 113] 95

What value of Plant response rating, Pigweed has been reported for the following compound? CCc1sc2ccc(C)cc2c1-c1c(O)c(C)nn(C)c1=O [Compound 47] 98

# get_value(readout='Plant response rating, Pigweed', item= Cc1ccc2sc(C)c(-c3c(OC(=O)OC(C)C)c(C)nn(C)c3=O)c2c1 [Compound 66] ) 100

----------
# Tested on: radish, wild (wild radish, Raphanus raphanistrum)
# Assay overview: Test D controlled growth environment herbicide test, pre- and postemergence
# Type: in vivo
# Test context: Preemergence, 62 g ai/ha; scale 0 to 100 (0 no effect, 100 complete control)
Measured quantity: Plant response rating, Radish, Wild
Answer with a number only.

Item under review: Cc1nn(C)c(=O)c(-c2ccc(Br)c3ccccc23)c1O [Compound 75] . Reported Plant response rating, Radish, Wild? 70

I'd like to know its Plant response rating, Radish, Wild. The molecule in question is Cc1nn(C)c(=O)c(-c2c(C)sc3ccc(Br)cc23)c1O [Compound 22] 25

Give its Plant response rating, Radish, Wild value. Item: Cn1nc(Br)c(O)c(-c2cccc3ccccc23)c1=O [Compound 20] 0

Returns the measured Plant response rating, Radish, Wild for the input molecule. Input: Cc1ccc2ccccc2c1-c1c(OC(=O)OC(C)C)c(C)nn(C)c1=O [Compound 72] 0

Quick one: Plant response rating, Radish, Wild for COC(=O)Oc1c(C)nn(C)c(=O)c1-c1c(C)sc2ccc(C)cc12 [Compound 80] ? 75

# lookup: Plant response rating, Radish, Wild of Cc1nn(C)c(=O)c(-c2c(C)sc3c(C)cc(Cl)cc23)c1O [Compound 35] 100

----------
# Test system: pigweed (Amaranthus retroflexus)
# Assay overview: Test A greenhouse herbicide test, pre- and postemergence
# Type: in vivo
# Test context: Preemergence, 500 g ai/ha; 0 to 100 scale where 0 is no effect and 100 is complete control
Record form. Attribute: Plant response rating, Pigweed. Fill in for each entry.

Recall the recorded Plant response rating, Pigweed for Cc1nn(C)c(=O)c(-c2c([N+](=O)[O-])ccc3ccccc23)c1O [Compound 165] with pigweed (Amaranthus retroflexus) and state it. 90

Test system pigweed (Amaranthus retroflexus); read-out Plant response rating, Pigweed; what value for CC(=O)Oc1c(C)nn(C)c(=O)c1-c1c(C)sc2ccc(Cl)cc12 [Compound 108] ? 100

What Plant response rating, Pigweed appears in the records for this compound with pigweed (Amaranthus retroflexus)? CCc1nn(C)c(=O)c(-c2c(C)oc3ccc(C)cc23)c1O [Compound 118] 10

pigweed (Amaranthus retroflexus) / Plant response rating, Pigweed / CCOc1ccc2oc(CC)c(-c3c(O)c(C)nn(C)c3=O)c2c1 [Compound 68] : value? 0

Find Plant response rating, Pigweed (pigweed (Amaranthus retroflexus)) for the entry CC(=O)Oc1c(C)nn(C)c(=O)c1-c1c(C)sc2ccc(C(F)(F)F)cc12 [Compound 132] 100
